# study.target: Aspartate--tRNA(Asp/Asn) ligase (Mycobacterium tuberculosis (strain ATCC 25618 / H37Rv)) (UniProt P9WFW3); also: in the data most compounds retested in dose-response had high values
# Sequence (P9WFW3 whole entry): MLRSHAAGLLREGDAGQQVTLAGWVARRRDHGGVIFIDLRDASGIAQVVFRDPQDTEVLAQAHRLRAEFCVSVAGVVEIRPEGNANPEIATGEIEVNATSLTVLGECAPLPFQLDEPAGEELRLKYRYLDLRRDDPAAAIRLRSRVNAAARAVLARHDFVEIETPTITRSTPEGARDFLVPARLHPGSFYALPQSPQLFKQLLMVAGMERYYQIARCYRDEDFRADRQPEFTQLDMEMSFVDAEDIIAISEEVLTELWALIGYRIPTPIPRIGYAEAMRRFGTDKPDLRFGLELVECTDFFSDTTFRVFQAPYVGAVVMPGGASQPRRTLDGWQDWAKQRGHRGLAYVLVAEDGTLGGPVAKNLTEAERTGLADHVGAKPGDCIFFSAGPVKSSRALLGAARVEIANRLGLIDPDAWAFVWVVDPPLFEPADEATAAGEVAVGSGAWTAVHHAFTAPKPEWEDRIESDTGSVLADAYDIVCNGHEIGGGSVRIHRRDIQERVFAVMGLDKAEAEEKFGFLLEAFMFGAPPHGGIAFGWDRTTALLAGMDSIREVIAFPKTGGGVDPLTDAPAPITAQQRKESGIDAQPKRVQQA
# method.summary: Assay for Asp RNA synthetase-1 from Mycobacterium tuberculosis
# Format: functional
# Parameters: scale not given: direction of the effect not stated beside the values
# experimental.context: 30 µM
recorded.metric: Percent Effect (%)
# output: bare number, implied unit %

compound	recorded.metric	measured.number
COc1ccc(NC(=O)CCc2c(C)nc3cc(O)nn3c2C)cn1	Percent Effect	-0.607
Cc1ncc2c(n1)CN(Cc1noc(C3CC3)n1)CC2	Percent Effect	0.182
Cc1cc(CN(C)C(=O)NC(C)c2nncn2C)no1 (configuration not stated)	Percent Effect	-3.43
Cc1nc(CN2CCCN(CC(=O)Nc3cccnc3)CC2)no1	Percent Effect	1.58
Cc1n[nH]c(C)c1C1COCCN1C(=O)c1cc(Cl)c[nH]1 (configuration not stated)	Percent Effect	2.63
COCC(=O)N1Cc2cnc(Cc3ccc(OC)cc3)nc2C1	Percent Effect	2.73

As a next step, examine the compound that follows.
I'd like to know its Percent Effect. The compound in question is "Cn1cnnc1C1CCN(c2cncc(-n3cccn3)n2)CC1"
0.324

###

Property: Percent Effect; scope: individual molecules
# study.target: Shiga toxin 2 (Escherichia coli O157:H7) (UniProt P09385+P09386)
# method.summary: E. coli 0.157:H7 Shiga Toxin SOP - stx2 screening assay
# Assay type: functional
# Parameters: scale not given: direction of the effect not stated beside the values
# experimental.context: 30 µM
Response body: numeric value in %, unit text excluded.

Example entries and their recorded answers appear below.
molecule	display.unit	Percent Effect
O=C(c1ccsc1)N1CCCC(c2cc(C(F)(F)F)[nH]n2)C1 (stereo unspecified)	%	28
CC(CNC(=O)c1cccnc1Oc1cccnc1)N(C)C (stereo unspecified)	%	-12.1
CCc1sc(-c2nnc(CNCCn3cc(C)cn3)o2)cc1C	%	-107
COc1c(CNCc2ccc(C(=O)NC3CC3)cc2)c(C)nn1C	%	-14.2
OCC1CCCCN1c1ccc(-c2nc(-c3ccccc3F)no2)cn1 (stereo unspecified)	%	-36.1

Query (molecule): Cc1noc(C)c1-c1cncc(C2CCCN2Cc2cncnc2)n1 (stereo unspecified) ; field requested: Percent Effect
0.369

And "O=C([C@H]1C[C@@H]2CCN(C3CCOCC3)C[C@@H]2O1)N1CCOCC1" ?
-10.3

Here is the next molecule: CCn1nc(CNC(=O)C2CC(=O)N(C3CCCC3)C2)c2ccccc21 (stereo unspecified)
-13.1

# iterate: COc1cccc(COCC(=O)N2CCCC(n3ccnc3C)C2)c1 (stereo unspecified)
-2.47

Subsequent entry: "COCCC(=O)N1CC2(CCN(Cc3cccc(Cl)c3)CC2)C1"
-17.6

Please do the same for Cc1cccc(-n2cc(C(=O)N3CCCC(n4ccnc4)C3)nn2)c1 (stereo unspecified) as well.
7.71

###

Each entry below lists one item and its recorded Percent Effect value.
# study.target: Tyrosyl-tRNA synthetase, putative (Trypanosoma cruzi (strain CL Brener))
# method.summary: Trypanosoma cruzi tyrosyl tRNA synthetase (TcYRS) SOP
# Type: functional
# Parameters: scale not given: direction of the effect not stated beside the values
# experimental.context: 30 µM
The answer is to be given in %; state only the numeric part.

These recorded examples may help you get a feel for the data.
molecule	Percent Effect, %
CC(C)CN1CCC2(CC1)C(=O)Nc1ccc(C(=O)N(C)C)cc12	8.64
O=C1N(c2cncnc2)CCC12CCCN(Cc1ccccn1)C2 (stereo unspecified)	8.64
O=C(c1cccnc1)N1C[C@@H]2CC[C@H](C1)N(Cc1ncc[nH]1)C2	15

Now for the molecule whose Percent Effect we want.
# get_value(readout='Percent Effect', item= CN1C(=O)C2(CCN(CCO)C2)c2ccccc21 (stereo unspecified) )
12.8
